// provenance: ChEMBL document CHEMBL1128579

Assay: Titrimetrically measured pKa1 value of the compound
Format: physicochemical
Conditions: read-out: pKa1

| givenSmiles | pKa |
| --- | --- |
| c1cc(CCNCCCCNCCc2ccncc2)ccn1 | 9.81 |
| C(CCNCC1CCNCC1)CNCC1CCNCC1 | 10.9 |
| c1cc(CNCCCCNCc2ccncc2)ccn1 | 9.23 |
| FC(F)(F)CNCCCNCCCCNCCCNCC(F)(F)F | 10.5 |
| NCCCNCCCCNCCCN | 10.9 |

----------
Listed here: items and their measured IC50.
Test system: L1210
Assay: Inhibitory concentration against L1210 cells on 96h incubation.
Assay type: functional, cell-based
Conditions: Mus musculus, L1210, 96 h
experimentalEndpoint: IC50 (µM)

| compound | units | valueRelationSign | readoutValue |
| --- | --- | --- | --- |
| FC(F)(F)CNCCCNCCCCNCCCNCC(F)(F)F | µM | > | 100 |
| CCNCCCNCCCCNCCCNCC [BIS(ETHYL)SPERMINE] | µM | = | 0.2 |
